- experimentalSystem: Hypoxia-inducible factor 1-alpha (Homo sapiens)
- testDetails: Inhibition of hypoxia-induced HIF1alpha accumulation in human LN229 cells at 20 uM after 1 hr preincubation measured after 24 hrs by Western blot analysis
- Format: functional, cell-based
- assayContext: LN-229
Activity calls are given as the source filed them. The rule behind the calls is not given here.
Form entry, call: pick from Yes = active, No = inactive

Consider the following illustrative entries.
> print(dat)
                                   molecule                        experimentalsystem  cat
1  CC(C)C[C@H](NC(=O)[C@H](Cc1ccccc1)NC(=O)c1cnccn1)B(O)O  Hypoxia-inducible factor 1-alpha (Homo sapiens)  Yes
2  COc1c(C(C)n2cnc3ncccc32)ccc2c1C=CC(C)(C)O2 (stereo not drawn)  Hypoxia-inducible factor 1-alpha (Homo sapiens)   No
3  COc1ccc(S(=O)(=O)N(Cc2ccc3c(c2)C=CC(C)(C)O3)C2CCCC2)cc1OC  Hypoxia-inducible factor 1-alpha (Homo sapiens)  Yes
4  COc1ccc(S(=O)(=O)N(Cc2ccc3c(c2)CC(C)(C)O3)C2CCCC2)cc1OC  Hypoxia-inducible factor 1-alpha (Homo sapiens)   No
5  COc1ccc(S(=O)(=O)N(Cc2ccc3c(n2)C=CC(C)(C)O3)C2CCC2)cc1OC  Hypoxia-inducible factor 1-alpha (Homo sapiens)   No

(Q) Hi team, can someone confirm the assay call for "COc1ccc(S(=O)(=O)N(Cc2ccc3c(c2)CC(C)(C)O3)c2ccccc2)cc1OC" ?
(A) Yes

(Q) Hi team, can someone confirm the assay call for "COc1ccc(S(=O)(=O)N(Cc2ccc3c(c2)C=CC(C)(C)O3)c2ccccc2)cc1OC" ?
(A) No

(Q) Hi team, can someone confirm the assay call for "CCCCN(Cc1ccc2c(c1)CC(C)(C)O2)S(=O)(=O)c1ccc(OC)c(OC)c1" ?
(A) No
